Just for reference, patent US9850283B2 is where these values come from.

IC50 listing for selected compounds.
Target: LK35.2-hPD-L1 cells / PE-labeled PD-1-Ig (Homo sapiens, UniProt Q9NZQ7)
Construct: expressed in transfected cells; host or cells: LK35.2 mouse B cell line
Sequence (Q9NZQ7 19-290): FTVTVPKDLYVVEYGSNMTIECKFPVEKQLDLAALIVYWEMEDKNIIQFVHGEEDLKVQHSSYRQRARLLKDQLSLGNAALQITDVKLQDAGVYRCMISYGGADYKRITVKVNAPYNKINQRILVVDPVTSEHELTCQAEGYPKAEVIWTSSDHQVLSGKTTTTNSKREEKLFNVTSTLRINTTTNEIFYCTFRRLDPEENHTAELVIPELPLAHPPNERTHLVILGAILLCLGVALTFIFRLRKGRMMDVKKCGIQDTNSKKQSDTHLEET
Assay: LK35.2-hPD-L1 cell binding high-content screening assay
Format: cell-based
Conditions: cluster symbol; cell line of CBA not given (LK35.2-hPD-L1 or 293T-hPD-L1); read-out: CBA IC50 cluster
Protocol: LK35.2-hPD-L1 Cell Binding High-Content Screening Assay. Phycoerythrin (PE) was covalently linked to the Ig epitope tag of human PD-1-Ig and fluorescently-labeled PD-1-Ig was used for binding studies with a mouse B cell line (LK35.2) stably over-expressing human PD-L1 (LK35.2-hPD-L1). Briefly, 3×10^3 LK35.2-hPD-L1 cells were seeded into 384 well plates in 20 ul of RPMI supplemented with 10% fetal calf serum and cultured overnight. […]
Positions of bridges follow the written chain, without caps; N, C: chain ends. Non-standard residues stand in square brackets, D forms with d. Residues, ends and D or L forms follow the SMILES beside them. Phe(3,4,5-F3) = N[C@@H](Cc1cc(F)c(F)c(F)c1)C(=O)O; Ala(4-thiazolyl) = N[C@@H](Cc1cscn1)C(=O)O; NMeF = CN[C@@H](Cc1ccccc1)C(=O)O; NMeNle = CCCC[C@H](NC)C(=O)O; Sar = CNCC(=O)O

CCCC[C@H]1C(=O)N(C)CC(=O)N[C@@H](CC(=O)O)C(=O)N[C@@H](C(C)C)C(=O)N(C)[C@@H](Cc2ccccc2)C(=O)N[C@@H](Cc2ccc(O)cc2)C(=O)N(C)CC(=O)N[C@@H](Cc2c[nH]c3ccccc23)C(=O)N[C@@H](Cc2ccc(O)cc2)C(=O)N[C@@H](CC(C)C)C(=O)N[C@H](C(=O)NCC(N)=O)CSCC(=O)N[C@@H](Cc2cscn2)C(=O)N(C)[C@@H](Cc2ccccc2)C(=O)N1C [Example 3092] ({CH2CO}-[Ala(4-thiazolyl)][NMeF][NMeNle][Sar]DV[NMeF]Y[Sar]WYLCG-NH2; thioether N-13) = > 74.3 nM

Could you now look at the following compound, please?
// map CCCC[C@H]1C(=O)N(C)CC(=O)N[C@@H](CC(=O)O)C(=O)N[C@@H](C(C)C)C(=O)N(C)[C@@H](Cc2ccccc2)C(=O)N[C@@H](Cc2ccc(O)cc2)C(=O)N(C)CC(=O)N[C@@H](Cc2c[nH]c3ccccc23)C(=O)N[C@@H](Cc2ccc(O)cc2)C(=O)N[C@@H](CC(C)C)C(=O)N[C@H](C(=O)NCC(N)=O)CSCC(=O)N[C@@H](Cc2cc(F)c(F)c(F)c2)C(=O)N(C)[C@@H](Cc2ccccc2)C(=O)N1C [Example 3144] ({CH2CO}-[Phe(3,4,5-F3)][NMeF][NMeNle][Sar]DV[NMeF]Y[Sar]WYLCG-NH2; thioether N-13) to recorded IC50 (system: LK35.2-hPD-L1 cells / PE-labeled PD-1-Ig (Homo sapiens, UniProt Q9NZQ7)) 0.158 to 4.71 nM
